# System: U2OS
# measurement_description: Multiplex assay against U2OS
# Type: toxicity, cell-based
# experimental_parameters: human, 48 h, 1 µM, compound concentration 1 uM, replicate 1
parameter_measured: Population Tubulin-Different-Phenotype (%)

{"compound": "Cc1cccc(CN2CCN(C(c3ccccc3)c3ccc(Cl)cc3)CC2)c1.Cl.Cl (stereo not drawn)", "assay_value": 5}
{"compound": "CC(C)c1noc(N2CCC(COc3ccc(-c4ccc(S(C)(=O)=O)cc4)nc3)CC2)n1", "assay_value": 8}
{"compound": "CCCSc1nc(N[C@@H]2C[C@H]2c2ccc(F)c(F)c2)c2nnn([C@@H]3C[C@H](OCCO)[C@@H](O)[C@H]3O)c2n1", "assay_value": 3}
{"compound": "C[C@]12CC[C@@H]3c4ccc(O)cc4CC[C@H]3[C@@H]1CC[C@@H]2O", "assay_value": 15}
{"compound": "CN1CCN(Cc2ccc(Nc3ncc(Cl)c(Nc4ccccc4S(=O)(=O)N(C)C)n3)cc2)CC1", "assay_value": 11}
{"compound": "COC(=O)C1=C(C)NC(C)=C(C(=O)OCCCN2CCC(c3ccccc3)(c3ccccc3)CC2)[C@H]1c1cccc([N+](=O)[O-])c1", "assay_value": 97}
{"compound": "CC(C)OC(=O)N1CCC(Oc2ncnc3c2cnn3-c2ccc(S(C)(=O)=O)cc2F)CC1", "assay_value": 5}
{"compound": "Cc1c[nH]c2nccc(Oc3c(F)cc(Nc4cc(Cl)nc(N)n4)cc3F)c12", "assay_value": 20}
{"compound": "Cl.O=C(O)c1cc(-c2ccc(C3CCNCC3)cc2)c2ccc(-c3ccc(C(F)(F)F)cc3)cc2c1", "assay_value": 12}
{"compound": "COc1ccc(-c2ccc3ncc4c(c3c2)n(-c2ccc(N3CCNCC3)c(C(F)(F)F)c2)c(=O)n4C)cn1.O=C(O)/C=C\\C(=O)O", "assay_value": 80}
{"compound": "COc1cc2ncn(-c3cc(OCc4ccccc4C(F)(F)F)c(C(N)=O)s3)c2cc1OC [GW843682X]", "assay_value": 18}
{"compound": "Cc1ccc2c(c1)c1c(n2CCc2ccc(C)nc2)CCN(C)C1 [LATREPIRDINE]", "assay_value": 22}
{"compound": "CC1=C(C(=O)Nc2cc3cn[nH]c3cc2F)C(c2ccc(C(F)(F)F)cc2)CC(=O)N1 (stereo not drawn)", "assay_value": 11}
{"compound": "CC(C)Oc1ccccc1C(=O)Nc1ccccc1C(=O)Nc1cccc(S(=O)(=O)C(F)(F)F)c1", "assay_value": 25}
{"compound": "O=C(c1cc2c(cc1F)OC(c1ccc(F)cc1)(c1ccc(Cl)cc1Cl)O2)N1CCOCC1 (stereo not drawn)", "assay_value": 9}
{"compound": "CCc1nn(CCCN2CCN(c3cccc(Cl)c3)CC2)c(=O)n1CCOc1ccccc1.Cl [NEFAZODONE HYDROCHLORIDE]", "assay_value": 14}
{"compound": "CNC(=O)Nc1ccc(-c2nc(N3CC4CCC(C3)O4)c3cnn(C4CCC5(CC4)OCCO5)c3n2)cc1", "assay_value": 19}
{"compound": "CC(C)NC(=O)N1CC[C@H](NC2=Nc3cc(F)ccc3N(CC(F)F)c3ccc(Cl)cc32)C1", "assay_value": 23}
{"compound": "COc1cc(Nc2nccc(-c3cnn4nc(OC)ccc34)n2)cc(C(F)(F)F)c1", "assay_value": 15}
{"compound": "CC(C)(C)NC[C@H](O)COc1nsnc1N1CCOCC1", "assay_value": 5}
{"compound": "CCc1ccc(OCc2ccccc2C(=O)Nc2ccc3nc(C)cc(N)c3c2)cc1.Cl", "assay_value": 75}
{"compound": "COc1ccccc1CN[C@H]1C2CCN(CC2)[C@H]1C(c1ccccc1)c1ccccc1", "assay_value": 5}
{"compound": "O=c1cc(N2CCOCC2)oc2c(-c3cccc4c3sc3ccccc34)cccc12", "assay_value": 9}
